The entries below come with measured WBC4000 values attached.
- Tested on: peripheral leucocytes
- procedure text: Effect upon peripheral leucocytes (bone marrow toxicity)
- Type: in vivo, male mice (ddy strain)
- stated conditions: minimum dose decreasing peripheral leucocytes to 4000/mm^3; tumour-bearing ddy mice, intraperitoneal, blood 4 days later
- Source text: Certain Compounds (I) and Sarcoma 180 solid tumour were used to determine, on each occasion, antitumour activity (ED50), acutee toxicity (LD50) and effect upon peripherical leucocytes (WBC4000), as shown Table 6. of peripheral leucocytes to 4000/mm^3. Sarcoma 180 solid tumour cells (5×10^6) were subcutaneously implanted under the skin of the right armpit of each mouse (body weight 20±2 g) of a group consisting of 5 male mice (ddy strain). […]

Solved entries (count: 4):
query: What does the record list as WBC4000 for CCS(CC)=NC1=C(C)C(=O)C2=C(C1=O)[C@@H](COC(N)=O)[C@@]1(OC)[C@H]3N[C@H]3CN21 [Compound 6] ?
result: 5.6 mg/kg

query: What does the record list as WBC4000 for CC1=C(N=S(c2ccccc2)c2ccccc2)C(=O)C2=C(C1=O)N1C[C@H]3[C@H](N3C)[C@]1(O)[C@H]2COC(N)=O (some centres unmarked) [Compound 2] ?
result: > 200 mg/kg

query: What does the record list as WBC4000 for CO[C@@]12[C@H](COC(N)=O)C3=C(C(=O)C(C)=C(N=P(c4ccccc4)(c4ccccc4)c4ccccc4)C3=O)N1C[C@@H]1N[C@@H]12 [Compound 9] ?
result: > 100 mg/kg

query: What does the record list as WBC4000 for C=C1C2=C(C(=O)C(C)=C(N=S(c3ccccc3)c3ccccc3)C2=O)N2C[C@H]3[C@H](N3C)[C@]12O (some centres unmarked) [Compound 3] ?
result: > 200 mg/kg

Attention now turns to another entry.
query: What does the record list as WBC4000 for CO[C@@]12[C@H](COC(N)=O)C3=C(C(=O)C(C)=C(N=S(C)c4ccccc4)C3=O)N1C[C@@H]1N[C@@H]12 (some centres unmarked) [Compound 5] ?
result: 4.1 mg/kg
